- Tested on: Plasmodium berghei
- Test: Screen against P. berghei liver stage (PbLuc), transformed with Luciferase, at 10uM
- Type: functional, HepG2
- Condition notes: tested at 10 uM
The campaign covered roughly 69,000 compounds. About 8,600 (12%) showed an effect of 50% or more. What follows is part of a selection rich in strong results, with near analogues and random picks from the rest.
Rule: INHIBITION below 20% gives true (1), anything at or above gives false (0).

# Compound, Class
data = [
    ("Cc1ncc(C(=O)NCCNc2ncnc3sccc23)s1", "false (0)"),
]

Hi there! Is INHIBITION for `NC(=O)c1cccc(CCNC(=O)N2Cc3ccccc3C2)c1` below 20%, do you know?
false (0)

Hi there! Is INHIBITION for `COc1ccc(CCNC(=O)NCc2cccc(C(N)=O)c2)cc1OC` below 20%, do you know?
false (0)

Hi there! Is INHIBITION for `CN(Cc1ccco1)C[C@H]1OC[C@@H]2CN(c3ncc(F)cn3)CC[C@@H]21` below 20%, do you know?
false (0)

Hi there! Is INHIBITION for `CCc1ncc(C(=O)NCCNc2ccncc2)s1` below 20%, do you know?
false (0)

Hi there! Is INHIBITION for CCN(Cc1ccc(O)c(C(=O)O)c1)CC1CCCO1 (stereo unspecified) below 20%, do you know?
false (0)

Hi there! Is INHIBITION for `COc1cn(CC(=O)N2CCC(c3ccccc3)CC2)c(C)cc1=O` below 20%, do you know?
true (1)

Hi there! Is INHIBITION for `O=C(NCCN1CCNC1=O)c1cnc(-c2cccnc2)nc1` below 20%, do you know?
true (1)

Hi there! Is INHIBITION for `CN(Cc1ccco1)C[C@@H]1OC[C@H]2CN(Cc3nccs3)CC[C@H]21` below 20%, do you know?
true (1)

Hi there! Is INHIBITION for `C=C(C)CN1CCC(NC(=O)NCCc2ccccc2OC)CC1` below 20%, do you know?
false (0)

Hi there! Is INHIBITION for `Cc1ccc(CN2CC[C@H]3[C@H]2CCN3S(=O)(=O)C2CC2)cc1` below 20%, do you know?
true (1)

Hi there! Is INHIBITION for CC(NC(=O)NCc1ccc(Cl)cc1)c1ccccn1 (stereo unspecified) below 20%, do you know?
true (1)

Hi there! Is INHIBITION for Cc1ccc(O)c(CNC2CCc3nc(C(C)C)nn3C2)n1 (stereo unspecified) below 20%, do you know?
true (1)

Hi there! Is INHIBITION for `Cc1cccc(N2CC[C@H]3[C@H](CO[C@@H]3CN(C)Cc3ccco3)C2)n1` below 20%, do you know?
false (0)

Hi there! Is INHIBITION for `Cc1ncc(C(=O)NCCNC(=O)c2ccccc2)s1` below 20%, do you know?
true (1)

Hi there! Is INHIBITION for `CCS(=O)(=O)N1CCc2c(COCCN(C)C)cncc2C1` below 20%, do you know?
false (0)

Hi there! Is INHIBITION for `Cc1ccc(NC2CCN(C(=O)CCNc3ncccn3)CC2)nn1` below 20%, do you know?
true (1)

Hi there! Is INHIBITION for `CCOC(=O)[C@H]1CNC[C@@H]1C(F)(F)F` below 20%, do you know?
false (0)

Hi there! Is INHIBITION for `Cc1cc2ccccc2n1CC(=O)NCC(=O)N1CCOCC1` below 20%, do you know?
true (1)

Hi there! Is INHIBITION for `Cc1ccc(CN2CC[C@H]3CO[C@H](CN(C)Cc4ccco4)[C@H]3C2)s1` below 20%, do you know?
true (1)

Hi there! Is INHIBITION for `CCc1nc(C)c(C(=O)NCCNc2ncnc3sccc23)s1` below 20%, do you know?
false (0)

Hi there! Is INHIBITION for `O=C(NC[C@H]1OC[C@@H]2CCN(c3ccccn3)C[C@@H]21)c1ccco1` below 20%, do you know?
true (1)

Hi there! Is INHIBITION for `CO[C@@H]1CCN(S(=O)(=O)c2cn(C)cn2)[C@H]1Cc1ccncc1` below 20%, do you know?
false (0)

Each recorded value in this set is attributed to ChEMBL document CHEMBL4513216.
